The reader will find reported IC50 values listed item by item below.
Biological target: Phosphatidylinositol 4,5-bisphosphate 3-kinase catalytic subunit alpha isoform (Homo sapiens)
Sequence (P42336 whole entry, canonical isoform): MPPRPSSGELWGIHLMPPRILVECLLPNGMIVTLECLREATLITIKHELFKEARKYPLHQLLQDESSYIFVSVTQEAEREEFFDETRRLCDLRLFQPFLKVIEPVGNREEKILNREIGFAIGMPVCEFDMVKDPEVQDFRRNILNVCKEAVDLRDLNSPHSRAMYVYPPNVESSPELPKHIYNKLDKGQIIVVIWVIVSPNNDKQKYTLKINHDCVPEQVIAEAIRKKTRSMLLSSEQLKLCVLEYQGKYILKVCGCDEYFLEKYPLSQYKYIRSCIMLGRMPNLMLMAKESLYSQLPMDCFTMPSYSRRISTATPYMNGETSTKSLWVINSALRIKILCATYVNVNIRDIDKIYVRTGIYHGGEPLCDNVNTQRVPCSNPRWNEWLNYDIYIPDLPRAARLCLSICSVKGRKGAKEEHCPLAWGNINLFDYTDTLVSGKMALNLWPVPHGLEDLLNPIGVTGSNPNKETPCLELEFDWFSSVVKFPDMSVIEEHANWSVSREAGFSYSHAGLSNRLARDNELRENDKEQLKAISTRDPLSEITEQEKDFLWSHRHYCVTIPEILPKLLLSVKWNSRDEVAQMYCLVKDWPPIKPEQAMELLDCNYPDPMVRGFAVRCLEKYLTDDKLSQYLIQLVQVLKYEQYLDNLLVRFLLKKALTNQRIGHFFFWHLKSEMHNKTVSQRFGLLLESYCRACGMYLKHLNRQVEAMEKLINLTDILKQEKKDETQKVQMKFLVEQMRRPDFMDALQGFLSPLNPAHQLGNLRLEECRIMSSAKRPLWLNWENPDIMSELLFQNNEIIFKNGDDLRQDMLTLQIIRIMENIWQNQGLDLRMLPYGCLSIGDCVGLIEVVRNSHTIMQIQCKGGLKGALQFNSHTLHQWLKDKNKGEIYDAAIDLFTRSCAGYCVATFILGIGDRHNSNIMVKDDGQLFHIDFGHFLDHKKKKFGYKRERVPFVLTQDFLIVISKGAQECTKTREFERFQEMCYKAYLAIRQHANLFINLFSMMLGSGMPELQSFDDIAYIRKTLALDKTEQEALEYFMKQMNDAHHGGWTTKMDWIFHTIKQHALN
Experiment: Inhibition of PI3Kalpha (unknown origin)
readout.name: IC50 (µM)

{"molecular.string": "COc1ncc(-c2ccncc2)cc1NS(C)(=O)=O", "readout.name": "IC50", "sign": "=", "val": 6.3}
{"molecular.string": "c1cc(-c2ccncc2)c2cc[nH]c2c1", "readout.name": "IC50", "sign": ">", "val": 50}
{"molecular.string": "c1cc(-c2ccc3ccncc3c2)c2cc[nH]c2c1", "readout.name": "IC50", "sign": ">", "val": 32}
{"molecular.string": "COc1ncc(-c2ccc3ccncc3c2)cc1NS(C)(=O)=O", "readout.name": "IC50", "sign": "=", "val": 2.5}

----------
Molecular target: Phosphatidylinositol 4,5-bisphosphate 3-kinase catalytic subunit gamma isoform (Homo sapiens, UniProt P48736)
Sequence (P48736 whole entry, canonical isoform): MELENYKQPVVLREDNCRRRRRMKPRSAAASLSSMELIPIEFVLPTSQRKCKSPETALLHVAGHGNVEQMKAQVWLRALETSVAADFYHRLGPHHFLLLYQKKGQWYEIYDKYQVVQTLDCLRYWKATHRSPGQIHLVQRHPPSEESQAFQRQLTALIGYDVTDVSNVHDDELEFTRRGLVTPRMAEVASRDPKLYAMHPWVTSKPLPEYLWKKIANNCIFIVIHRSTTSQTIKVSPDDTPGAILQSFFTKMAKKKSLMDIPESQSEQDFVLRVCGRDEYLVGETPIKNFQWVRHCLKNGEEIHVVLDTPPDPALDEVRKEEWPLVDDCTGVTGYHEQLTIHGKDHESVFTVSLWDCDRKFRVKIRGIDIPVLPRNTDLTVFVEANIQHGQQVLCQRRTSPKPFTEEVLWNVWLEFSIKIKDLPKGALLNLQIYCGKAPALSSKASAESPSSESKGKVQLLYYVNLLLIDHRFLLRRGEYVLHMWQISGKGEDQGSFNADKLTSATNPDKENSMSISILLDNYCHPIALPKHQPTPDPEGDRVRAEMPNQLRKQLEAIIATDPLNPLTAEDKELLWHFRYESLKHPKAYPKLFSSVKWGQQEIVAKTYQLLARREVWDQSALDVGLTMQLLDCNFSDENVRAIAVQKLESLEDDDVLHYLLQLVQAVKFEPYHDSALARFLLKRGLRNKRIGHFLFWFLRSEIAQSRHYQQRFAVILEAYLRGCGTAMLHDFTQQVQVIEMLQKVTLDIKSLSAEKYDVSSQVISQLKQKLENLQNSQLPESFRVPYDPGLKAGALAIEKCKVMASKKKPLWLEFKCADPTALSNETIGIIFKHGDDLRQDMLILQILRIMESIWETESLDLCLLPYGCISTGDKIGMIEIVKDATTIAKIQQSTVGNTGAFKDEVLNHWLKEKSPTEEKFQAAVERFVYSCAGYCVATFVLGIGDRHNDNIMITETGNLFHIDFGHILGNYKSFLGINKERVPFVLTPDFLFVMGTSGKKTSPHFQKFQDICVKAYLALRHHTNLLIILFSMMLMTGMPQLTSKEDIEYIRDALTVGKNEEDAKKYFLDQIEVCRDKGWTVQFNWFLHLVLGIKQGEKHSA
Test: Inhibition of PI3Kgamma (unknown origin)
pIC50: −log10 of the molar value.
readout.name: pIC50

{"molecular.string": "COc1ncc(-c2ccc3ccncc3c2)cc1NS(C)(=O)=O", "readout.name": "pIC50", "sign": "=", "val": 6.10}
{"molecular.string": "COc1ncc(-c2ccncc2)cc1NS(C)(=O)=O", "readout.name": "pIC50", "sign": "=", "val": 5.60}
{"molecular.string": "c1cc(-c2ccncc2)c2cc[nH]c2c1", "readout.name": "pIC50", "sign": "<", "val": 4.30}
